// data source = patent US20250382302A1

tested on: RPMI-8226; assay: NCI five-dose testing, RPMI-8226; details: Homo sapiens, RPMI-8226, read-out: LC50
MEASURED_ATTRIBUTE: CC50 (µM)
API: value field is a number in µM; no unit string.

q: Record C=CCN(C(=O)C(=O)NC1=CC(=O)c2ccccc2C1=O)c1ccsc1C(=O)OC : what is its CC50 with RPMI-8226?
a: 5.28

q: Record COc1cccc(OC)c1N(Cc1ccoc1)C(=O)C(=O)NC1=CC(=O)c2ccccc2C1=O : what is its CC50 with RPMI-8226?
a: 5.12

q: Record C=CCN(C(=O)C(=O)NC1=CC(=O)c2ccccc2C1=O)c1c(OC)cccc1OC : what is its CC50 with RPMI-8226?
a: 4.74

q: Record COC1=C[C@H]2[C@H]3C[C@@H]1CN1C(=O)C(=O)N4C5=C(C(=O)c6ccccc6C5=O)[C@]3(OC)[C@]214 : what is its CC50 with RPMI-8226?
a: 4.71

----------
Exercise: for every item that follows, state its recorded GI50.
API: value field is a number in nM; no unit string.

q: Record COc1cccc(OC)c1N(Cc1ccoc1)C(=O)C(=O)NC1=CC(=O)c2ccccc2C1=O : what is its GI50 with RPMI-8226?
a: 1300

q: Record C=CCN(C(=O)C(=O)NC1=CC(=O)c2ccccc2C1=O)c1c(OC)cccc1OC : what is its GI50 with RPMI-8226?
a: 1040

q: Record C=CCN(C(=O)C(=O)NC1=CC(=O)c2ccccc2C1=O)c1ccsc1C(=O)OC : what is its GI50 with RPMI-8226?
a: 1470

q: Record COC1=C[C@H]2[C@H]3C[C@@H]1CN1C(=O)C(=O)N4C5=C(C(=O)c6ccccc6C5=O)[C@]3(OC)[C@]214 : what is its GI50 with RPMI-8226?
a: 803
